# credit: the supplement of paper PMC13380429

Test system: Vero E6 infected with SARS-CoV-2
Test: morphology score (similarity to uninfected cells); higher = more like uninfected cells
Details: 24 h
Lab note: anything with morphology score at or over 0.08 counts as YES; the rest go in NO.

Use the examples below as a reference point.
CC(C)[C@@]1(NC(=O)[C@@H]2C[C@@H]3c4cccc5[nH]cc(c45)C[C@H]3N(C)C2)O[C@@]2(O)[C@@H]3CCCN3C(=O)[C@H](Cc3ccccc3)N2C1=O [dihydroergocristine] (10 µM) : NO
CNC(=S)C1(c2ccccn2)CCCS1 (centres undefined) [picartamide] (10 µM) : NO
CN1[C@@H]2CC[C@H]1C[C@@H](OC(=O)C(CO)c1ccccc1)C2 (some centres undefined) (10 µM) : NO
O=C(O)COc1ccc(OCCNC[C@H](O)COc2ccccc2)cc1 (10 µM) : NO
CCNC(=O)c1n[nH]c(-c2cc(Cl)c(O)cc2O)c1-c1ccc(OC)cc1 (10 µM) : NO

Decide: is the reported value of morphology score for COc1c(C)cnc(Cn2cnc3c(Cl)nc(N)nc32)c1C (10 µM) equal to or greater than 0.08? YES

Decide: is the reported value of morphology score for O=C1c2ccccc2C(=O)c2ccccc21 [anthraquinone] (10 µM) equal to or greater than 0.08? YES

Decide: is the reported value of morphology score for C=CCCCCCCCCC(=O)[O][Zn][O]C(=O)CCCCCCCCC=C [zinc-undecylenate] (10 µM) equal to or greater than 0.08? YES

Decide: is the reported value of morphology score for CCCCCCCCCCCCCCCC(=O)OC[C@@H](NC(=O)C(Cl)Cl)[C@H](O)c1ccc([N+](=O)[O-])cc1 [chloramphenicol-palmitate] (10 µM) equal to or greater than 0.08? NO

Decide: is the reported value of morphology score for CCC(CC)(NC(=O)C(C)C)C(=O)N[C@@H](CCCNC(=N)N)C(=O)NC1(C(=O)NC(c2ccc(F)cc2)c2ccc(F)cc2)CCCC1 (10 µM) equal to or greater than 0.08? NO

Decide: is the reported value of morphology score for CC(=O)NCCCCCC(=O)O [acexamic-acid] (10 µM) equal to or greater than 0.08? NO

Decide: is the reported value of morphology score for CC(C)=CCC/C(C)=C/CC/C(C)=C/CSc1ccccc1C(N)=O [farnesyl-thiosalicylic-acid-amide] (10 µM) equal to or greater than 0.08? NO

Decide: is the reported value of morphology score for O=C1NC(=O)c2c1c1c3ccccc3[nH]c1c1[nH]c3ccccc3c21 [arcyriaflavin-a] (10 µM) equal to or greater than 0.08? YES

Decide: is the reported value of morphology score for COc1cc(OC)cc(N(CCNC(C)C)c2ccc3ncc(-c4cnn(C)c4)nc3c2)c1 [erdafitinib] (0.833333 µM) equal to or greater than 0.08? YES

Decide: is the reported value of morphology score for COC(=O)N[C@@H](C)CNc1nccc(-c2cn(C(C)C)nc2-c2cc(Cl)cc(NS(C)(=O)=O)c2F)n1 [Encorafenib (LGX818)] (0.833333 µM) equal to or greater than 0.08? NO

Decide: is the reported value of morphology score for CN1C[C@@H](NS(=O)(=O)N(C)C)C[C@@H]2c3cccc4c3c(cn4C)C[C@H]21 [mesulergine] (10 µM) equal to or greater than 0.08? YES

Decide: is the reported value of morphology score for NCCCNCCSP(=O)(O)O [amifostine] (10 µM) equal to or greater than 0.08? YES

Decide: is the reported value of morphology score for CC(C)(C)NCC(O)c1ccccc1Cl (centres undefined) [tulobuterol] (10 µM) equal to or greater than 0.08? NO

Decide: is the reported value of morphology score for C#C[C@]1(O)CC[C@H]2[C@@H]3CCC4=CC(=O)CC[C@]4(C)[C@H]3CC[C@@]21C [ethisterone] (10 µM) equal to or greater than 0.08? NO

Decide: is the reported value of morphology score for Nc1cc(C(F)(F)F)c(-c2cc(N3CCOCC3)nc(N3CCOCC3)n2)cn1 [buparlisib] (10 µM) equal to or greater than 0.08? NO

Decide: is the reported value of morphology score for O=C(CCCN1CCC(O)(c2ccc(Br)cc2)CC1)c1ccc(F)cc1 [bromperidol] (10 µM) equal to or greater than 0.08? NO

Decide: is the reported value of morphology score for Cn1nc(-c2ccc(C(F)(F)F)cc2)nc2c(=O)n(C)c(=O)nc1-2 [walrycin-B] (0.833333 µM) equal to or greater than 0.08? YES

Decide: is the reported value of morphology score for C[C@H](N[C@@H](CCc1ccccc1)C(=O)O)C(=O)N1Cc2ccccc2C[C@H]1C(=O)O [quinaprilat] (10 µM) equal to or greater than 0.08? YES
